Test system: HIV-1 Env-pseudoviruses (208-strain panel)
method.description: microbe, parasite or virus in culture
Assay type: cell-based
protocol.conditions: Human immunodeficiency virus 1, TZM-bl, 6471.v1.c16, clade C; read-out: IC50
Experimental: Neutralization was measured using single-round-of-infection HIV-1 Env-pseudoviruses and TZM-bl target cells (ARP Cat No. #8129)[44],[45]. Compounds were prepared at 400 μM with 4% DMSO (dimethyl sulfoxide) in PBS (phosphate-buffered saline) and diluted 20 times as the starting concentration for serial dilution in the neutralization assays. […] After incubation at 37 °C for 2 days, infection of target cells was measured by luciferase activity. […]
readout.label: IC50 (nM)
The reply should contain only the number, in nM.

Task: Given COc1cnc(-c2csc(C(=O)NCCO)n2)c2[nH]cc(C(=O)C(=O)N3CCC(=C(C#N)c4ccccc4)CC3)c12 [BMS-818251] , state its recorded IC50.
Output: 0.1
